Test system: wheat germ agglutinin (Triticum aestivum), Alexa647-labelled
Procedure Details: wheat germ agglutinin binders on compound microarrays, profiling panel, artefact control for SMM control-protein annotation, biochemical, small-molecule microarray, 635/667 nm fluorescence (AID 1140);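 note: score merges 667 nm feature emission with signal to noise over triplicate slides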
Condition Set: WGA-A647 binding, 635 nm fluorescence, higher = more signal
Attribute Measured: composite z-score
Output spec: single numeric token, no unit.

Look over these answered cases.
[
  {
    "Smiles Representation": "CC(C)=NO[C@@H](C)c1cc(-c2c(C)cc(C)cc2C)no1",
    "composite z-score": -0.418
  },
  {
    "Smiles Representation": "Cc1ccc(S(=O)(=O)N[C@H]2COC(=O)[C@@H](C)COC(=O)[C@H](C)NC(=O)CC=C[C@H]2C)cc1",
    "composite z-score": -0.634
  },
  {
    "Smiles Representation": "CCOC(=O)NN=C1C[C@@H](O)[C@@H](O)[C@@H]2[C@@H]3C(=O)N(Cc4ccccc4)C(=O)[C@@H]3CC[C@@H]12",
    "composite z-score": 0.0775
  },
  {
    "Smiles Representation": "C[C@@H](c1ccccc1)N1C(=O)[C@H]2[C@H]3[C@H](O)[C@H](O)CC(=O)[C@@H]3CC[C@H]2C1=O",
    "composite z-score": 0.108
  }
]

// moving on: another record for composite z-score
Value sought: composite z-score, system wheat germ agglutinin (Triticum aestivum), Alexa647-labelled, item CC(C)=NOCc1ccc(-c2cn([C@@H]3COC[C@H]3O)nn2)cc1 . Result: -0.132

----------
Test system: wheat germ agglutinin (Triticum aestivum), Alexa647-labelled
Procedure Details: wheat germ agglutinin binders on compound microarrays, profiling panel, artefact control for SMM control-protein annotation, biochemical, small-molecule microarray, 635/667 nm fluorescence (AID 1140);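 note: score merges 667 nm feature emission with signal to noise over triplicate slides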
Condition Set: WGA-A647 binding, 635 nm fluorescence, higher = more signal
Some compounds, each annotated with its measured composite z-score.

Look over these answered cases.
[
  {
    "Smiles Representation": "CC(C)CON=C1C[C@@H](O)[C@@H](O)[C@@H]2[C@@H]3C(=O)N(c4cccc(Oc5ccccc5)c4)C(=O)[C@@H]3CC[C@H]12",
    "Recorded Measurement": 0.196
  },
  {
    "Smiles Representation": "C#CCCCON=C1C[C@@H](O)[C@@H](O)[C@@H]2[C@@H]3C(=O)N(C4CCCCC4)C(=O)[C@@H]3CC[C@H]12",
    "Recorded Measurement": 0.698
  },
  {
    "Smiles Representation": "CO[C@H]1COC(=O)CC=C[C@@H](C)COC(=O)[C@@H](OCc2ccccc2)C=C[C@@H]1C",
    "Recorded Measurement": -1.13
  }
]

composite z-score reading for CCCNC(=O)OC[C@H]1O[C@H](CCON=C(C)CCC(=O)OC[C@H]2O[C@H](C#Cc3ccccc3)C=C[C@@H]2Oc2ccc(C)cc2)C=C[C@@H]1Oc1ccc(OC)cc1 : -0.26

----------
Some compounds, each annotated with its measured composite z-score.
Target Desc: Albumin (Bos taurus) (UniProt P02769)
Sequence (P02769 whole entry, looked up): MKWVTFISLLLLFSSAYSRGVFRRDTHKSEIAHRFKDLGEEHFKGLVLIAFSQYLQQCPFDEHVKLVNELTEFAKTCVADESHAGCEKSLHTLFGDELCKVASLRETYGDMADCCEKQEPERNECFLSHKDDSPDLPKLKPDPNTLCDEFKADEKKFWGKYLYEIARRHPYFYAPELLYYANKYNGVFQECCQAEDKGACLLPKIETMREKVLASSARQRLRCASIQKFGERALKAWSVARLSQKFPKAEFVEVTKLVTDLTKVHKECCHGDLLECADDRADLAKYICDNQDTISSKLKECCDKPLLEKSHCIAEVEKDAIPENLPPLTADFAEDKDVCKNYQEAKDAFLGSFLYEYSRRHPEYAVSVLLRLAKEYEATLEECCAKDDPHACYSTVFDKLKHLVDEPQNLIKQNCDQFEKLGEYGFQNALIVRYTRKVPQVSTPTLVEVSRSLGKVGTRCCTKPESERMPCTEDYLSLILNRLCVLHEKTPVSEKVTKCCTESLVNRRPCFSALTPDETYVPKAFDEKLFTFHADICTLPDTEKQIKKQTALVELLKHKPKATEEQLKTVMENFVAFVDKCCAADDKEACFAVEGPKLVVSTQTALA
Procedure Details: bovine serum albumin binders on microarray, profiling panel, artefact control for SMM control protein annotation, biochemical, small-molecule microarray, Alexa647 label, 635/667 nm fluorescence (AID 1118);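 note: score merges 667 nm emission intensity and signal-to-noise per printed compound spot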
Condition Set: BSA-A647 binding, fluorescence 635 nm, higher = more signal
Output spec: single numeric token, no unit.

Look over these answered cases.
[
  {
    "Compound": "CC(=O)OC[C@H]1O[C@H](C#CC(C)(C)C)C=C[C@@H]1OC(C)=O",
    "Attribute Measured": "composite z-score",
    "Recorded Measurement": 0.895
  },
  {
    "Compound": "Cc1cc2c(nc1C)CCCN2CC(C)ON=C[C@@H](C)[C@H](OCc1ccccc1)C(C)C (stereo not given in full)",
    "Attribute Measured": "composite z-score",
    "Recorded Measurement": -0.69
  },
  {
    "Compound": "COC(=O)[C@H](C)NC(=O)CCC1CC(OC(=O)NCCc2ccc(F)cc2)CC2(CCCC(COC(=O)NCCCN3CCCC3=O)O2)O1 (stereo not given in full)",
    "Attribute Measured": "composite z-score",
    "Recorded Measurement": 0.171
  }
]

Value sought: composite z-score, system Albumin (Bos taurus) (UniProt P02769), item O=C(NN=C1C[C@@H](O)[C@@H](O)[C@@H]2[C@@H]3C(=O)N(Cc4ccc5c(c4)OCO5)C(=O)[C@@H]3CC[C@H]12)OCc1ccccc1 . Result: -0.401

Value sought: composite z-score, system Albumin (Bos taurus) (UniProt P02769), item CO[C@H]1COC(=O)[C@H](C)NC(=O)CC=C[C@@H](C)[C@H](OC)COC(=O)CC=C[C@@H]1C . Result: -0.956
